Attribution: the supplement of paper PMC10065799

A collection of sequences and their measured phosphorylation enrichment
# Test system: Fer (mouse)
# assay: phosphorylation enrichment, bacterial display (enrichment ratio); higher = better substrate or ligand; peptides without Tyr show the background;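 note: 11-residue human phosphosite peptides and single-mutation variants displayed on the E. coli surface, counted by deep sequencing, each peptide's frequency after selection divided by its frequency in the unselected input library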;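 note: frequency after pTyr selection over input frequency; kinase dosed for 20-30% of maximal phosphorylation in three min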
Returns: the value as a bare number; no unit string appended.

See these solved cases before continuing.
>>> observed_result("RILENYGADID [DNAH5_Y596_L591R]")
0.403
>>> observed_result("HDEPTYARSSK [PEAK1_Y616]")
0.57
>>> observed_result("RLPINYTTRRI [LAMA2_Y2894_G2889R]")
0.289
>>> observed_result("HRGYLYLAIEY [TEK_Y899]")
0.432
>>> observed_result("ENAGFYFRISA")
0.674
>>> observed_result("PEADKYHLTYA [FGG_Y300_R301H]")
0.282
>>> observed_result("PLRANYLIARV [HLCS_Y635_D634N]")
0.7
>>> observed_result("KKCTTYIDCDL [ASPA_Y64_R63T]")
0.713

Exercise: What is its phosphorylation enrichment for Fer (mouse)? Entry: CKLYQYYLDHL [ATRX_Y1849]
Solution: 0.758

Exercise: Item: FTRNFYVQAVL [CYBA_Y88_R90Q_YF] Test system: Fer (mouse) Read-out: phosphorylation enrichment Value: ?
Solution: 0.654

Exercise: Hello, I am looking for reported phosphorylation enrichment with Fer (mouse) for LEQQKYTVTVD [IKBKB_Y199] . Could you help?
Solution: 0.674

Exercise: Look up phosphorylation enrichment with Fer (mouse) for this sequence: KMGNIYRTEYG [MRPL3_Y265]
Solution: 0.334

Exercise: For Fer (mouse), provide phosphorylation enrichment of GEDEPYAEPFA [APBA1_Y183_S184A_YF] please.
Solution: 0.569

Exercise: What value of phosphorylation enrichment on Fer (mouse) does RGFRQYAFDGK [HLA-A_Y140_D140Y_YF] have?
Solution: 0.425

###

# target: MERTK (UniProt Q12866)
# Sequence (Q12866 whole entry, looked up): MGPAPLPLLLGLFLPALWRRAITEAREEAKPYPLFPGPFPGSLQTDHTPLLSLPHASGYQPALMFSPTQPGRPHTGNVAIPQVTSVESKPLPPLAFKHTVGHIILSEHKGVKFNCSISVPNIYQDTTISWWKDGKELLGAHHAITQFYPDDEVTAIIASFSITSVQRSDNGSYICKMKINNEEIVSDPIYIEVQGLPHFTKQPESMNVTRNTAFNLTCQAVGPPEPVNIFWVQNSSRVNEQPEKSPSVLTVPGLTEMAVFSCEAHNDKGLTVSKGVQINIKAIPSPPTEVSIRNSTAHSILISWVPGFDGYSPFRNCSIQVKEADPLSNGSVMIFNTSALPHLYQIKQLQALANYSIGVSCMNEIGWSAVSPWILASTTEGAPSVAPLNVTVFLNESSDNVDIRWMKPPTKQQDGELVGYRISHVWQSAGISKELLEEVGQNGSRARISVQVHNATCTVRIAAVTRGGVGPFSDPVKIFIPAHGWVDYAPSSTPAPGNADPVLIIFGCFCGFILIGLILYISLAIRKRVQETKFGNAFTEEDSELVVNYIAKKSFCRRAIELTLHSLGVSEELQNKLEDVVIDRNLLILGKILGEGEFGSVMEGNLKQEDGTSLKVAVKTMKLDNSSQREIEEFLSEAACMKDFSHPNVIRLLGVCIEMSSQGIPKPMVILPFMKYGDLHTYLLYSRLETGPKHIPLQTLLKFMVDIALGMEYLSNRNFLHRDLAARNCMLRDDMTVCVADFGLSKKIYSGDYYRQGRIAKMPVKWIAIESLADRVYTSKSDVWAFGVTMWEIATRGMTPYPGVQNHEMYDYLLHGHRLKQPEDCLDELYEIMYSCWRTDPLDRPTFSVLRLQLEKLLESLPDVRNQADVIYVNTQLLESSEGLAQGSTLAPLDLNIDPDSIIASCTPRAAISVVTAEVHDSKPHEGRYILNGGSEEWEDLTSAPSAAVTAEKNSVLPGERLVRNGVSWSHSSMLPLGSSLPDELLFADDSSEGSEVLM
# assay: phosphorylation enrichment, bacterial display (enrichment ratio); higher = better substrate or ligand; peptides without Tyr show the background
Parameter threshold = 0.5. Response is Condition met when phosphorylation enrichment meets or exceeds it, else Condition not met.

>>> cat("FRKNIYNVKST [SYNE2_Y575_YF]")
"Condition not met"
>>> cat("HNLDFYKKTTN [FGFR3_Y648_YF]")
"Condition met"
>>> cat("EKMWSYMKSAE [GRIA3_Y705]")
"Condition not met"
>>> cat("EVTLTYATGTK [NFKB1_Y485]")
"Condition not met"
>>> cat("RLKAKYAAATG [GLI3_Y933]")
"Condition not met"
>>> cat("AVLALYNSTRD [TGFB1_Y81]")
"Condition met"
>>> cat("LHRAHYDLRHT [AHSG_Y314]")
"Condition not met"
>>> cat("LLKNMYLMLDN [STAT1_Y203_K201N]")
"Condition met"

Exercise: Does phosphorylation enrichment meet or surpass 0.5 for HEPKGYNANFC [TGFB2_Y341] ?
Solution: Condition met

Exercise: Please tell me: is the sequence SMAKYYASGIA [ACADSB_Y373_E376G] at or over 0.5 in terms of phosphorylation enrichment?
Solution: Condition not met

Exercise: Record QFQEKYKQMEQ [HCN4_Y531_V534M_YF] ; criterion: phosphorylation enrichment no lower than 0.5. Met?
Solution: Condition met

Exercise: Is the recorded value of phosphorylation enrichment equal to or greater than 0.5 for this sequence? IVKAYYVHARA [AIPL1_Y268_R270H]
Solution: Condition met
